For each record, write down the corresponding IC50.
Biological target: Recombinant human intelectin-1 (Homo sapiens, UniProt Q8WWA0, V109D)
Sequence (Q8WWA0 19-298 V109D): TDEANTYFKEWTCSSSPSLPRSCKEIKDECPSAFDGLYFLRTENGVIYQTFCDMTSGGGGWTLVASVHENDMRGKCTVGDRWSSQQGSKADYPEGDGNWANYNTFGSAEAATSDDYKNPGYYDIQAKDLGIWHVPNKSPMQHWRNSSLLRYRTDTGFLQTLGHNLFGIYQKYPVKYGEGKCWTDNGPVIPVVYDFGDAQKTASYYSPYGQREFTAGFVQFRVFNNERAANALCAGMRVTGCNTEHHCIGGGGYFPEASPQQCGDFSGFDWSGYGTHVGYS
Assay: Inhibition of the binding of intelectin to a 3-amino-1-propanediol sensor chip by various compounds (Biacore, Example 3)
Conditions: Biacore; intelectin 0.5 microgram/mL; sensor chip with 3-amino-1-propanediol fixed; 10 mM HEPES pH 7.0, 1 mM CaCl2; read-out: IC50 for inhibition of the binding of intelectin and the diol group
Your answer should be a plain number; it is taken to be in mM.

Fetch value of IC50 on Recombinant human intelectin-1 (Homo sapiens, UniProt Q8WWA0, V109D) for O=CC[C@@H](O)[C@@H](O)[C@H](O)CO [2-deoxygalactose] .
1.1

Fetch value of IC50 on Recombinant human intelectin-1 (Homo sapiens, UniProt Q8WWA0, V109D) for O=P(O)(O)OCC(O)CO (stereo not drawn) [alpha-glycerophosphate] .
1.2

Fetch value of IC50 on Recombinant human intelectin-1 (Homo sapiens, UniProt Q8WWA0, V109D) for CCC(O)CO (stereo not drawn) [1,2-butanediol] .
0.8

Fetch value of IC50 on Recombinant human intelectin-1 (Homo sapiens, UniProt Q8WWA0, V109D) for NC(CO)(CO)CO [Tris] .
14

Fetch value of IC50 on Recombinant human intelectin-1 (Homo sapiens, UniProt Q8WWA0, V109D) for O=C[C@@H](O)[C@H](O)[C@@H](O)CO [L-xyrose] .
9

Fetch value of IC50 on Recombinant human intelectin-1 (Homo sapiens, UniProt Q8WWA0, V109D) for C[C@H](O)CO [(S)-1,2-propanediol] .
1.2

Fetch value of IC50 on Recombinant human intelectin-1 (Homo sapiens, UniProt Q8WWA0, V109D) for OCC(O)CO [glycerol] .
0.8

Fetch value of IC50 on Recombinant human intelectin-1 (Homo sapiens, UniProt Q8WWA0, V109D) for OCCCO [1,3-propanediol] .
30

Fetch value of IC50 on Recombinant human intelectin-1 (Homo sapiens, UniProt Q8WWA0, V109D) for O=C[C@@H](O)[C@@H](O)[C@H](O)CO [D-lyxose] .
22

Fetch value of IC50 on Recombinant human intelectin-1 (Homo sapiens, UniProt Q8WWA0, V109D) for COC1(C(=O)O)C[C@H](O)[C@@H](NC(C)=O)[C@H]([C@H](O)[C@H](O)CO)O1 (stereo partly drawn) [2-O-methyl-D-N-acetylneuraminic acid] .
6

Fetch value of IC50 on Recombinant human intelectin-1 (Homo sapiens, UniProt Q8WWA0, V109D) for C[C@@H](O)[C@H](O)[C@H](O)[C@@H](O)C=O [D-fucose] .
60

Fetch value of IC50 on Recombinant human intelectin-1 (Homo sapiens, UniProt Q8WWA0, V109D) for C[C@H](O)[C@@H](C)O [meso-2,3-butanediol] .
1.8

Fetch value of IC50 on Recombinant human intelectin-1 (Homo sapiens, UniProt Q8WWA0, V109D) for O=C[C@H](O)[C@@H](O)[C@@H](O)CO [L-arabinose] .
22

Fetch value of IC50 on Recombinant human intelectin-1 (Homo sapiens, UniProt Q8WWA0, V109D) for C[C@@H](O)CO [(R)-1,2-propanediol] .
1

Fetch value of IC50 on Recombinant human intelectin-1 (Homo sapiens, UniProt Q8WWA0, V109D) for O=C[C@@H](O)[C@@H](O)[C@@H](O)CO [L-ribose] .
0.3

Fetch value of IC50 on Recombinant human intelectin-1 (Homo sapiens, UniProt Q8WWA0, V109D) for CC(=O)N[C@H]1C(O)O[C@H](CO)[C@@H](O[C@@H]2O[C@@H]([C@H](O)CO)[C@H](O)[C@H]2O)[C@@H]1O (stereo partly drawn) [Galf-GlcNAc] .
1.4

Fetch value of IC50 on Recombinant human intelectin-1 (Homo sapiens, UniProt Q8WWA0, V109D) for O=C[C@H](O)[C@H](O)[C@@H](O)CO [L-lyxose] .
13

Fetch value of IC50 on Recombinant human intelectin-1 (Homo sapiens, UniProt Q8WWA0, V109D) for CC(O)CO (stereo not drawn) [1,2-propanediol] .
0.9

Fetch value of IC50 on Recombinant human intelectin-1 (Homo sapiens, UniProt Q8WWA0, V109D) for O=C[C@@H](O)[C@H](O)[C@H](O)CO [D-arabinose] .
30

Fetch value of IC50 on Recombinant human intelectin-1 (Homo sapiens, UniProt Q8WWA0, V109D) for CC(=O)N[C@H]1C(O)O[C@H](CO)[C@@H](O)[C@@H]1O (stereo partly drawn) [N-acetylglucosamine] .
50
